Tested system: alpha2A receptor (Homo sapiens, UniProt P08913)
Construct: expressed in transfected cells; host or cells: NIH-3T3 cells
Sequence (P08913 whole entry): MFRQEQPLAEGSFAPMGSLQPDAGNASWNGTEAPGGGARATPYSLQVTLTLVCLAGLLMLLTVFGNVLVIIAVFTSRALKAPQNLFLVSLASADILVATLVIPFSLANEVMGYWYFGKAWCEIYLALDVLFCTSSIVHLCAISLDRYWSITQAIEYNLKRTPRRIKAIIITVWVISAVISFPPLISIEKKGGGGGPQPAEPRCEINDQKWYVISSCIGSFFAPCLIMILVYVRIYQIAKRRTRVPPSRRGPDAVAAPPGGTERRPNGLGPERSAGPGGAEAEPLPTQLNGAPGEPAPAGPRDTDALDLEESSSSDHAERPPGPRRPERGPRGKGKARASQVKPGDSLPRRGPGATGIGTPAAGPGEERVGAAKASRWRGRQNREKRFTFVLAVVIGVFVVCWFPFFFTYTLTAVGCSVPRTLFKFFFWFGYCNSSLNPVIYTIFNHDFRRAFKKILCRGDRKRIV
Experimental details: RSAT (Receptor Selection and Amplification Technology) assay, alpha 2A
Format: cell-based
Measurement parameters: intrinsic activity: ratio of maximal effect of drug to maximal effect of standard full agonist brimonidine (UK14304)
Procedure: The aryl fluoroethyl ureas of the invention are agonists of alpha2 adrenergic receptors. […] Al, 1995, Pharmacol. Toxicol. 76, pp. 308-311 (incorporated herein by reference) and is also described below. […] NIH-3T3 cells are plated at a density of 2×10^6 cells in 15 cm dishes and maintained in Dulbecco's modified Eagle's medium supplemented with 10% calf serum. […] The absorbance is a measure of enzyme activity, which depends on cell number and reflects a receptor-mediated cell proliferation. […]
Experimental readout: Alpha 2A IA

| Sample smiles | Alpha 2A IA |
| --- | --- |
| COc1c(Cl)cccc1CNC(=O)NCCF | 0.66 |
| Cc1cccc(C)c1NC(=O)NCCF | 0.61 |
| O=C(NCCF)NCc1cccc(Br)c1 | 0.46 |
| O=C(NCCF)NCc1cccc(I)c1I | 0.59 |
| O=C(NCCF)Nc1cccc2ccccc12 | 0.74 |
| O=C(NCCF)NCc1cccc2c1OCC2 | 0.51 |
| Cc1ccnc(CNC(=O)NCCF)c1 | 0.36 |
| O=C(NCCF)Nc1ccc2ccccc2c1 | 0.58 |
| Cc1cccc(CNC(=O)NCCF)c1Cl | 0.34 |
| Cc1c(Cl)cccc1CNC(=O)NCCF | 0.36 |

A: Cc1cccc(CNC(=O)NCCF)n1
B: O=C(NCCF)NCc1cccc(O)c1
Which value of Alpha 2A IA is numerically greater: that of A or that of B ? Response format: the label of the selected entry.
A
(A: 0.62, B: 0.33)

1: C[C@H](NC(=O)NCCF)c1ccccc1
2: O=C(NCCF)NCc1ccccc1Br
Of 1 versus 2 , which is the one with smaller reported Alpha 2A IA? Response format: the label of the selected entry.
2
(2: 0.36, 1: 0.63)

###

Tested system: alpha2C receptor (Homo sapiens)
Construct: expressed in transfected cells; host or cells: NIH-3T3 cells
Sequence (P18825 whole entry): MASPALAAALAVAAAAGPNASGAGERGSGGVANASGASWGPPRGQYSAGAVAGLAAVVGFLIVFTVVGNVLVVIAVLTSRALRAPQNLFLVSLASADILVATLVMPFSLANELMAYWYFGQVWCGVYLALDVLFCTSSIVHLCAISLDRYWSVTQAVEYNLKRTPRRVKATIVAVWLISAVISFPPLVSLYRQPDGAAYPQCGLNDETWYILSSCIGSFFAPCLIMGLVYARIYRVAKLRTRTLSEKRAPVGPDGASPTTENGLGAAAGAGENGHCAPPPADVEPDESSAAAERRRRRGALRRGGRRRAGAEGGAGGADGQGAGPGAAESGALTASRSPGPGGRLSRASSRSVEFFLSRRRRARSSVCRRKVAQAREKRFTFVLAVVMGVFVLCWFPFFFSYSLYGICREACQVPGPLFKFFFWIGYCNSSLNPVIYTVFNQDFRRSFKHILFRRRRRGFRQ
Experimental details: RSAT (Receptor Selection and Amplification Technology) assay, alpha 2C
Type: cell-based
Measurement parameters: intrinsic activity: ratio of maximal effect of drug to maximal effect of standard full agonist brimonidine (UK14304)
Experimental: The aryl fluoroethyl ureas of the invention are agonists of alpha2 adrenergic receptors. […] Al, 1995, Pharmacol. Toxicol. 76, pp. 308-311 (incorporated herein by reference) and is also described below. […] NIH-3T3 cells are plated at a density of 2×10^6 cells in 15 cm dishes and maintained in Dulbecco's modified Eagle's medium supplemented with 10% calf serum. […] The absorbance is a measure of enzyme activity, which depends on cell number and reflects a receptor-mediated cell proliferation. […]
Experimental readout: Alpha 2C IA

| Sample smiles | Alpha 2C IA |
| --- | --- |
| O=C(NCCF)NCc1ccccc1F | 0.63 |

P: O=C(NCCF)NCc1cccc(O)c1
Q: Cc1cccc(C)c1NC(=O)NCCF
Of P versus Q , which is the one with smaller reported Alpha 2C IA? Response format: the label of the selected entry.
Q
(Q: 0.43, P: 0.67)

1: Cc1cccc(CNC(=O)NCCF)c1
2: O=C(NCCF)NCc1cccc(F)c1
Of 1 versus 2 , which is the one with smaller reported Alpha 2C IA? Response format: the label of the selected entry.
2

P: O=C(NCCF)NCc1ccccc1C(F)(F)F
Q: Cc1cc(CNC(=O)NCCF)nn1C
R: Cc1ccnc(CNC(=O)NCCF)c1
Reorder the items by Alpha 2C IA, least to greatest. Labels, ranked as asked.
Q, R, P
